study-target: plasma purified human complement protein C3 (human) (UniProt P01024)
Sequence (P01024 23-667, chain 1 of 2): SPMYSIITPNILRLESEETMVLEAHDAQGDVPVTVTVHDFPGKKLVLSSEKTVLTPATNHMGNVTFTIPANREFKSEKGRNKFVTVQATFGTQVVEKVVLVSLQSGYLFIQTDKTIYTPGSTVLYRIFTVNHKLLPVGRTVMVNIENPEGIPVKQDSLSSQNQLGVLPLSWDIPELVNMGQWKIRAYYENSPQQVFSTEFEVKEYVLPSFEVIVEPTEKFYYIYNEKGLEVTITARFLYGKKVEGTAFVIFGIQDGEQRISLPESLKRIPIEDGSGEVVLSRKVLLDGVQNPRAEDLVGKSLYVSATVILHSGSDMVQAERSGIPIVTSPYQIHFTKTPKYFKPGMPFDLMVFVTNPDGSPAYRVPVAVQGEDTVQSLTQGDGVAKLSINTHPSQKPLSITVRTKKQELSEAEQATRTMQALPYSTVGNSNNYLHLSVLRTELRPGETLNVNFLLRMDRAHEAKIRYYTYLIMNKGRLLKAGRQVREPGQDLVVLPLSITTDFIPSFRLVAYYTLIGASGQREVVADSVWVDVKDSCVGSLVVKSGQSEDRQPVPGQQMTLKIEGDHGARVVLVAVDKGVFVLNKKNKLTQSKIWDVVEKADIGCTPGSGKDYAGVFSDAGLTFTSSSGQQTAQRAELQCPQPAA
Sequence (P01024 672-1663, chain 2 of 2): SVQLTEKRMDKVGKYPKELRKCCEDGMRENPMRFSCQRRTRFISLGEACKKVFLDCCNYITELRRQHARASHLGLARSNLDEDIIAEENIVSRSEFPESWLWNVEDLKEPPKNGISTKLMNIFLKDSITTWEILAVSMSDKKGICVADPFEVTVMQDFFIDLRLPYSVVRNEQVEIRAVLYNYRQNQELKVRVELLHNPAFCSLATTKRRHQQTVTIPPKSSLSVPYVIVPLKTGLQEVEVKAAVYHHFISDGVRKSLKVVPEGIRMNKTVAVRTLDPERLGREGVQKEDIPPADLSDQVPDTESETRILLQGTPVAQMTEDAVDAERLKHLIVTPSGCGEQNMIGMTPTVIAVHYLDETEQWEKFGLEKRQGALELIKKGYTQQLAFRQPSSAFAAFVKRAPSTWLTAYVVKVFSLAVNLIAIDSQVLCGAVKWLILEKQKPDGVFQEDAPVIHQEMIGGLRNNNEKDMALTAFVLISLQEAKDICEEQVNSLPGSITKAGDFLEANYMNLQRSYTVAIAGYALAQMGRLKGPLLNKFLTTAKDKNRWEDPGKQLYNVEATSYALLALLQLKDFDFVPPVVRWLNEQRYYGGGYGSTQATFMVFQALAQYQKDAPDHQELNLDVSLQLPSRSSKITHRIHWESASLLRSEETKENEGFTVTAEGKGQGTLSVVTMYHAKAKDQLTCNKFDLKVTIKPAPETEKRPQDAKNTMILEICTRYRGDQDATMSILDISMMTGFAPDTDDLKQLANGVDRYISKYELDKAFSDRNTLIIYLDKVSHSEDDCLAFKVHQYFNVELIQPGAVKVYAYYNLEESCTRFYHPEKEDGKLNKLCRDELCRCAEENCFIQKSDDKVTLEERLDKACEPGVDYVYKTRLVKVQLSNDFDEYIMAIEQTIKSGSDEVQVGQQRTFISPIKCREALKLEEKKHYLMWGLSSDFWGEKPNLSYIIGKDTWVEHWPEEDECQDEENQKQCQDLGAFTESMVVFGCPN
assay-protocol: cell-based or functional assay
metric-name: EC50 of hC3 cleavage
Put down the number, then write its unit next to it.

# EC50 of hC3 cleavage of MTSP-1 Q38H/I41T/D60bV/F60eR/Y60gW/D96I/ins97aN/F97Y/T98G/F99L/C122S/G151N/Q175L/Q192D (enzyme) VVGGTDADEGEWPWQVSLHALGHGHTCGASLISPNWLVSAAHCYIDVRGRRWSDPTQWTAFLGLHDQSQRSAPGVQERRLKRIISHPFFNIYNGLDYDIALLELEKPAEYSSMVRPISLPDASHVFPAGKAIWVTGWGHTQYGGTNALILQKGEIRVINQTTCENLLPQLITPRMMCVGFLSGGVDSCDGDSGGPLSSVEADGRIFQAGVVSWGDGCAQRNKPGVYTRLPLFRDWIKENTGV = 9.75 nM

Lab book: EC50 of hC3 cleavage of MTSP-1 H40R/I41H/F97D/F99L/C122S/Q175R/Q192G/D217E/K224R (enzyme) VVGGTDADEGEWPWQVSLHALGQGRHCGASLISPNWLVSAAHCYIDDRGFRYSDPTQWTAFLGLHDQSQRSAPGVQERRLKRIISHPFFNDDTLDYDIALLELEKPAEYSSMVRPISLPDASHVFPAGKAIWVTGWGHTQYGGTGALILQKGEIRVINQTTCENLLPQRITPRMMCVGFLSGGVDSCGGDSGGPLSSVEADGRIFQAGVVSWGEGCAQRNRPGVYTRLPLFRDWIKENTGV noted as 31.2 nM

For MTSP-1 I41T/D60bH/ins97aV/F97D/T98P/F99L/C122S/Q192G/D217I (enzyme) VVGGTDADEGEWPWQVSLHALGQGHTCGASLISPNWLVSAAHCYIDHRGFRYSDPTQWTAFLGLHDQSQRSAPGVQERRLKRIISHPFFNDDVPLDYDIALLELEKPAEYSSMVRPISLPDASHVFPAGKAIWVTGWGHTQYGGTGALILQKGEIRVINQTTCENLLPQQITPRMMCVGFLSGGVDSCGGDSGGPLSSVEADGRIFQAGVVSWGIGCAQRNKPGVYTRLPLFRDWIKENTGV the binder record lists EC50 of hC3 cleavage as 4.52 nM

Reported EC50 of hC3 cleavage ( MTSP-1 Q38H/D60bT/F60eS/Y60gW/D96K/F97G/ins97aV/T98P/F99L/C122S/G151H/Q175L/Q192D (enzyme) VVGGTDADEGEWPWQVSLHALGHGHICGASLISPNWLVSAAHCYIDTRGSRWSDPTQWTAFLGLHDQSQRSAPGVQERRLKRIISHPFFNKGVPLDYDIALLELEKPAEYSSMVRPISLPDASHVFPAGKAIWVTGWGHTQYGGTHALILQKGEIRVINQTTCENLLPQLITPRMMCVGFLSGGVDSCDGDSGGPLSSVEADGRIFQAGVVSWGDGCAQRNKPGVYTRLPLFRDWIKENTGV ) = 215 nM

The binder MTSP-1 ins97aE/F97T/T98G/F99L/C122S/L153Q/Q175L/Q192D (enzyme) VVGGTDADEGEWPWQVSLHALGQGHICGASLISPNWLVSAAHCYIDDRGFRYSDPTQWTAFLGLHDQSQRSAPGVQERRLKRIISHPFFNDTEGLDYDIALLELEKPAEYSSMVRPISLPDASHVFPAGKAIWVTGWGHTQYGGTGAQILQKGEIRVINQTTCENLLPQLITPRMMCVGFLSGGVDSCDGDSGGPLSSVEADGRIFQAGVVSWGDGCAQRNKPGVYTRLPLFRDWIKENTGV showed EC50 of hC3 cleavage equal to 332 nM

Reported EC50 of hC3 cleavage of MTSP-1 I41D/ins97aE/F97T/T98G/F99L/C122S/G151N/Q175L/Q192E (enzyme) VVGGTDADEGEWPWQVSLHALGQGHDCGASLISPNWLVSAAHCYIDDRGFRYSDPTQWTAFLGLHDQSQRSAPGVQERRLKRIISHPFFNDTEGLDYDIALLELEKPAEYSSMVRPISLPDASHVFPAGKAIWVTGWGHTQYGGTNALILQKGEIRVINQTTCENLLPQLITPRMMCVGFLSGGVDSCEGDSGGPLSSVEADGRIFQAGVVSWGDGCAQRNKPGVYTRLPLFRDWIKENTGV : 148 nM

MTSP-1 H40R/I41H/Y60gH/F97D/F99L/C122S/G151N/Q175A/Q192H/D217I/K224R (enzyme) VVGGTDADEGEWPWQVSLHALGQGRHCGASLISPNWLVSAAHCYIDDRGFRHSDPTQWTAFLGLHDQSQRSAPGVQERRLKRIISHPFFNDDTLDYDIALLELEKPAEYSSMVRPISLPDASHVFPAGKAIWVTGWGHTQYGGTNALILQKGEIRVINQTTCENLLPQAITPRMMCVGFLSGGVDSCHGDSGGPLSSVEADGRIFQAGVVSWGIGCAQRNRPGVYTRLPLFRDWIKENTGV yielded EC50 of hC3 cleavage of 19.8 nM

Lookup result for MTSP-1 H40R/I41H/F97D/C122S/G151N/Q175M/Q192A/D217S/K224R (enzyme) VVGGTDADEGEWPWQVSLHALGQGRHCGASLISPNWLVSAAHCYIDDRGFRYSDPTQWTAFLGLHDQSQRSAPGVQERRLKRIISHPFFNDDTFDYDIALLELEKPAEYSSMVRPISLPDASHVFPAGKAIWVTGWGHTQYGGTNALILQKGEIRVINQTTCENLLPQMITPRMMCVGFLSGGVDSCAGDSGGPLSSVEADGRIFQAGVVSWGSGCAQRNRPGVYTRLPLFRDWIKENTGV ; measured EC50 of hC3 cleavage: 470 nM

EC50 of hC3 cleavage in this record for MTSP-1 Q38L/I41T/D60bV/F60eH/Y60gL/ins97aE/F97T/T98G/F99L/C122S/Q175L/Q192S (enzyme) VVGGTDADEGEWPWQVSLHALGLGHTCGASLISPNWLVSAAHCYIDVRGHRLSDPTQWTAFLGLHDQSQRSAPGVQERRLKRIISHPFFNDTEGLDYDIALLELEKPAEYSSMVRPISLPDASHVFPAGKAIWVTGWGHTQYGGTGALILQKGEIRVINQTTCENLLPQLITPRMMCVGFLSGGVDSCSGDSGGPLSSVEADGRIFQAGVVSWGDGCAQRNKPGVYTRLPLFRDWIKENTGV : 13.1 nM

Recorded result, MTSP-1 Q38E/I41S/D60bT/F60eR/F97T/ins97aE/T98G/F99L/C122S/Q175L/Q192V (enzyme) VVGGTDADEGEWPWQVSLHALGEGHSCGASLISPNWLVSAAHCYIDTRGRRYSDPTQWTAFLGLHDQSQRSAPGVQERRLKRIISHPFFNDTEGLDYDIALLELEKPAEYSSMVRPISLPDASHVFPAGKAIWVTGWGHTQYGGTGALILQKGEIRVINQTTCENLLPQLITPRMMCVGFLSGGVDSCVGDSGGPLSSVEADGRIFQAGVVSWGDGCAQRNKPGVYTRLPLFRDWIKENTGV , EC50 of hC3 cleavage: 32.7 nM
